Taken from the supplement of paper PMC10567573.

Listed variants paired with reported protein stability index
B1: TRIM63 (parent)
chain: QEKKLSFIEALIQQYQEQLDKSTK

- Variants of: B1
- EXPERIMENTAL_PROTOCOL: protein stability index of a GFP-peptide fusion (GPS, HEK-293T) (PSI 1-6); higher = more stable;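 note: lentivirally expressed fusions sorted by FACS into six bins by GFP to DsRed ratio, PSI derived from sequencing read proportions per bin multiplied by bin number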
- PROTOCOL_CONDITIONS: c terminus: a fixed tail appended
Write no unit; give the number alone.

As a guide, the following entries are already answered.
1. QEKKLSFIEALIQQYQEQLDGSTK = 2.02
2. QEKKLSFIEALIQQYQVQLDKSTK = 1.75

Next variant, please.
Query :: Look at this variant and give its reported protein stability index. QEKKLSTIEALIQQYQEQLDKSTK
Result :: 3.98
